Every entry's value here was drawn from patent US20220073608A1.

Target: T1, monkey SEMA4D, full length, on CHO-K1 cells (CHO-K1 cSEMA4D) (monkey)
T1 construct: whole, on cells; also called monkey SEMA4D recombinant cells
Assay: FACS, CHO-K1 cSEMA4D cells; Ab 13.3 nM
Observed property: MFI
Numbers only.

# count of solved cases: 2
* 31C11G2 (antibody, V domains shown, Mouse monoclonal antibody purified from hybridoma supernatant on protein A) VH: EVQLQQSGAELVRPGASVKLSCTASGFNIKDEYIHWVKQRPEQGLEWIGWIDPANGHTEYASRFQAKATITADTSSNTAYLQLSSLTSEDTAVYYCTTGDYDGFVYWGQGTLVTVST VL: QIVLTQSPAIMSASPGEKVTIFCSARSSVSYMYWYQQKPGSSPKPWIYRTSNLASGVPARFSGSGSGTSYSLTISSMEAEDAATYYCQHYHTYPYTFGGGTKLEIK | 4390
* 42B7G2 (antibody, V domains shown, Mouse monoclonal antibody purified from hybridoma supernatant on protein A) VH: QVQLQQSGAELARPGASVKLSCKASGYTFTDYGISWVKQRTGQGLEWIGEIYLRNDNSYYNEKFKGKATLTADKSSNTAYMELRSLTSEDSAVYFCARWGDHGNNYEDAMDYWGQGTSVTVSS VL: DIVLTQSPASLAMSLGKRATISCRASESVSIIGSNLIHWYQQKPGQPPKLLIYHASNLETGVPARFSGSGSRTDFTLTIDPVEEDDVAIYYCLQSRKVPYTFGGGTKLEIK | 2590

Consider the record given below.
Would you kindly share the measured MFI for 32C8F10 (antibody, V domains shown, Mouse monoclonal antibody purified from hybridoma supernatant on protein A) VH: EVQLQQSGAELVRPGASVKLSCTASGFNIKDEYIHWVKQRPEQGLEWIGWIDPANGHTEYASRFQAKATITADTSSNTAYLQLSSLTSEDTAVYYCTTGDYDGFAYWGQGTLVTVST VL: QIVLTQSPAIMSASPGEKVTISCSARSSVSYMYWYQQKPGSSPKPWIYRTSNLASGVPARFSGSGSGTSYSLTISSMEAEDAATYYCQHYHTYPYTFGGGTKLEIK ?
5590
